# Test system: HEK293
# test details: Antiproliferative activity against human HEK293 cells at 50 uM after 48 hrs by MTT assay
# Type: cell-based
# condition details: hek293, 48 h
readout type: Activity

Input line: Item CCSC(CC(=O)c1ccc(OCCN2CCCCC2)cc1)c1ccccc1 (centres undefined) : provide Activity
Output line: Non-toxic

Input line: Item COc1ccc(C(=O)CC(Sc2ccc(C)cc2)c2ccc(OC)cc2)cc1 (centres undefined) : provide Activity
Output line: Non-toxic

Input line: Item Cc1ccc(SC(CC(=O)c2ccc(OCCN(C)C)cc2)c2ccccc2)cc1 (centres undefined) : provide Activity
Output line: Non-toxic

Input line: Item CN(C)CCOc1ccc(C(=O)CC(Sc2ccccc2)c2ccccc2)cc1 (centres undefined) : provide Activity
Output line: Non-toxic
